# Test: chemical genetic growth profiling, strain panel (AID 1159580);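 note: tested at 20 µM; growth read once vehicle control cultures reached saturation at 30 °C; 1 = growth at the plate median or of vehicle wells; lower values mean less growth of the strain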
# Conditions: S. cerevisiae deletion strains, growth OD, locus YER002W, strain NOP16
The whole screen tested about 5,500 compounds, of which about 2,000 (36%) were called active. Another 18% or so got no clear call; they are omitted. Cut-off read from the data, not from the text of the source: active = normalized growth mostly below about 0.91 (no sharp cut-off); inconclusive = no clear call, values can overlap the other calls; inactive = mostly above about 0.92. The list shows a part of the results.
Allowed answers: T for active, F for inactive

Q: What was the test verdict on CCCCCCCCCCCCCCCCCC(=O)OC(CC(=O)O)C[N+](C)(C)C (stereo unspecified) ?
A: F

Q: Item: CCCCCCCCCC[Si](C)(C)CCC(=O)NC(Cc1ccc(C)cc1)c1ccccc1 (stereo unspecified)
A: T

Q: Same question, COc1cc(C=C(C#N)C#N)cc(O)c1O this time
A: F

Q: Please give the result for COc1ccc2c(c1)CCC1C2CC[C@@]2(C)C1CC[C@@H]2NCCCCCCN1C(=O)C=CC1=O (stereo partly specified) too.
A: T

Q: Another compound: NC[C@@H]1O[C@H](C23CC4CC(CC(C4)C2)C3)Cc2c1ccc(O)c2O
A: F

Here is the next item to consider.
Q: Entry O=c1c(O)c(-c2ccc(O)cc2O)oc2cc(O)cc(O)c12 : call = ?
A: F

###

# Test: chemical genetic growth profiling, strain panel (AID 1159580)
# Conditions: S. cerevisiae deletion strains, growth OD, locus YMR078C, strain ctf18, stronger effect = lower value
In all, about 5,500 compounds went through this assay and about 2,000 (36%) were called active. Not shown: some 18% with an inconclusive outcome. The list shows a part of the results.
Experimental readout: normalized growth
Enter the number alone.

Q: Give its normalized growth value. Item: Cc1cc(OC(=O)c2c(C)cc(O)cc2O)cc(O)c1C(=O)O
A: 1

Q: Now consider Cc1cc(OC(=O)c2c(C)cc(OC(=O)c3c(C)cc(O)cc3O)cc2O)cc(O)c1C(=O)O .
A: 1

Q: CC1(C)C(=O)C=C[C@@]2(C)C1C[C@@H](O)[C@]1(C)C2CC[C@@]2(C)[C@H](c3ccoc3)OC(=O)[C@H]3O[C@]321 (some centres undefined) ?
A: 0.982

Q: Another compound: CCC(=O)c1c(O)cc(O)cc1O
A: 0.976

Q: Now the compound CC1(C)C(=O)C=C[C@@]2(C)C1C=C[C@]1(C)C2CC[C@@]2(C)[C@H](c3ccoc3)OC(=O)C3OC321 (some centres undefined)
A: 0.956

Further cases:
Q: Entry COC(=O)c1c(C)cc(OC)cc1O : reported normalized growth = ?
A: 0.981

Q: Now the same for CCOC(=O)c1c(C)cc(OC)cc1O
A: 0.926

Q: Now consider COc1c(C(C)C)oc2cc3oc(=O)ccc3cc12 and answer again.
A: 0.945

###

# Test: chemical genetic growth profiling, strain panel (AID 1159580)
# Conditions: S. cerevisiae deletion strains, growth OD, locus YBR009C, strain hhf1
The campaign covered roughly 5,500 compounds. About 2,000 (36%) were called active. About 18% were inconclusive and are not listed. Rule as the data show it: active = normalized growth mostly below about 0.91 (no sharp cut-off); inconclusive = no clear call, values can overlap the other calls; inactive = mostly above about 0.92. Some of the results follow.
A correct response names exactly one class from active, inactive

The examples below pair each entry with its known result.
Q: Given CCCCCc1c2c(cc(O)c1C(=O)O)OC(=O)c1c(cc(OC)cc1C(=O)CCCC)O2 , state the outcome it received in this test.
A: inactive

Q: Also check O=c1ccc2cc(OC3OC(CO)C(O)C(O)C3O)c(O)cc2o1 (centres undefined)
A: inactive

Q: Queued: COc1ccc2ccc(=O)oc2c1
A: inactive

Q: Also check CNC(C)C(O)c1ccccc1 (centres undefined)
A: inactive

Q: Entry CCOCN(C(=O)CCl)c1c(C)cccc1CC please
A: inactive

Q: Next: O=c1c(O)c(-c2ccc(O)c(O)c2)oc2c(O)c(O)cc(O)c12
A: inactive

---
Q: Any idea what this test logged for COc1cc(OC)c2ccc(=O)oc2c1 ?
A: inactive

Q: Also COC1=CC(=O)C(O)=C/C1=C\C=C\c1ccccc1 ?
A: active

Q: Then what about the compound CC1(C)C=CC(=O)[C@@]2(C)C1CC(=O)[C@]1(C)C2CC[C@@]2(C)[C@H](c3ccoc3)OC(=O)C3OC321 (some centres undefined) ?
A: inactive

Q: Likewise for Cc1cc(OC(=O)c2c(C)cc(O)cc2O)cc(O)c1C(=O)O ?
A: inactive

Q: And the next one, C=CC1C2=CCOC(=O)C2=COC1OC1OC(CO)C(O)C(O)C1O (centres undefined) ?
A: inactive

Q: Request: CCOC(=O)c1c(C)cc(O)cc1O
A: active

Q: Would you kindly repeat that for C=C(C)[C@H]1COc2cc3oc(=O)ccc3cc2O1 ?
A: active

###

# Test: chemical genetic growth profiling, strain panel (AID 1159580);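 note: tested at 20 µM; growth read once vehicle control cultures reached saturation at 30 °C; 1 = growth at the plate median or of vehicle wells; lower values mean less growth of the strain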
# Conditions: S. cerevisiae deletion strains, growth OD, locus YHR142W, strain chs7
Hit rate of the full screen: of about 5,500 compounds, about 2,000 (36%) were called active. Roughly 18% stayed inconclusive and do not appear here. Cut-off read from the data, not from the text of the source: active = normalized growth mostly below about 0.91 (no sharp cut-off); inconclusive = no clear call, values can overlap the other calls; inactive = mostly above about 0.92. Some of the results follow.
Could you please pick one outcome from this set? active, inactive

The following compounds have reported results that may help.
Q: Please share the test call associated with C=C[C@H]1CN2CC[C@H]1C[C@@H]2[C@@H](OC(=O)OCC)c1ccnc2ccc(OC)cc12 .
A: inactive

Q: # repeat for Cc1ccccc1OCC(O)CO (centres undefined)
A: inactive

Q: Try this compound too: CC(=O)O[C@]1(C(C)=O)CCC2C3C=C(Cl)C4=CC(=O)[C@@H]5C[C@@H]5[C@]4(C)C3CC[C@@]21C (some centres undefined)
A: inactive

Q: Another: O=C(Cc1cccs1)NC1C(=O)N2C(C(=O)[O-])=C(C[n+]3ccccc3)CSC12 (centres undefined)
A: inactive

Q: Try this compound too: CC1CC[C@@]2(OC1)O[C@H]1CC3C4CC[C@@H]5C[C@@H](O)CC[C@]5(C)C4CC[C@]3(C)[C@H]1[C@@H]2C (some centres undefined)
A: active

Q: Next compound: Cc1cc(C2CCCCC2)n(O)c(=O)c1
A: active

---
Q: Returns: the outcome recorded for C[C@@H]1CC[C@@]2(OC1)OC1CC3C4CC=C5C[C@@H](O)CC[C@]5(C)C4CC[C@]3(C)C1[C@@H]2C (some centres undefined) in this assay.
A: inactive

Q: Entry C=C1CCC2(OC1)OC1CC3C4CC=C5CC(O)CC(O)C5(C)C4CCC3(C)C1C2C (centres undefined) please
A: active

Q: Thanks! And CC1CCC2(OC1)OC1CC3C4CC[C@H]5C[C@@H](O)CC[C@]5(C)C4CC(=O)[C@]3(C)C1C2C (some centres undefined) ?
A: inactive

###

# Test: chemical genetic growth profiling, strain panel (AID 1159580);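 note: tested at 20 µM; growth read once vehicle control cultures reached saturation at 30 °C; 1 = growth at the plate median or of vehicle wells; lower values mean less growth of the strain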
# Conditions: S. cerevisiae deletion strains, growth OD, locus YJL166W, strain qcr8
Among all 5,500 compounds or so, about 2,000 (36%) were called active. Roughly 18% stayed inconclusive and do not appear here. Cut-off read from the data, not from the text of the source: active = normalized growth mostly below about 0.91 (no sharp cut-off); inconclusive = no clear call, values can overlap the other calls; inactive = mostly above about 0.92. Some of the results follow.
Can you answer with just one of these options? label 1 = active, label 0 = inactive

Q: Recorded test call requested for CC1(C)C2CC(=O)[C@]3(C)C(CC[C@@]4(C)[C@H](c5ccoc5)OC(=O)[C@H]5O[C@]543)[C@@]2(C)C(=O)C[C@H]1O (stereo partly specified)
A: label 0

***
Q: Answer briefly: the call reported for CCCCCC(=O)Cc1cc(O)cc(O)c1C(=O)Oc1cc(CC(=O)CCCCC)c(C(=O)O)c(OC)c1 in this assay.
A: label 1

Q: What do you have for CC1(C)C(=O)C=C[C@@]2(C)C1CC(=O)[C@]1(C)C2CC[C@@]2(C)[C@H](c3ccoc3)OC(=O)[C@H]3O[C@]321 (stereo partly specified) ?
A: label 0

Q: // same read-out, input: C[C@@H]1O[C@@H](OC[C@H]2OC(Oc3c(-c4ccc(OCCO)c(OCCO)c4)oc4cc(OCCO)cc(O)c4c3=O)[C@H](O)[C@@H](O)[C@@H]2O)[C@H](O)[C@H](O)[C@H]1O (stereo partly specified)
A: label 0

Q: What do you have for Cc1cc(C2CCCCC2)n(O)c(=O)c1 ?
A: label 1

Q: Another compound to check: CC1(C)C2CC(=O)[C@]3(C)C(CC[C@@]4(C)[C@H](c5ccoc5)OC(=O)C5OC543)[C@@]2(C)[C@@H](O)C[C@H]1O (stereo partly specified)
A: label 0

Q: Similarly, COc1cc(O)c2c(=O)c(O)c(-c3ccc(O)c(O)c3)oc2c1 ?
A: label 1

Q: Lookup CNC(C)C(O)c1ccccc1 (stereo unspecified)
A: label 0

###

# Test: chemical genetic growth profiling, strain panel (AID 1159580);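 note: tested at 20 µM; growth read once vehicle control cultures reached saturation at 30 °C; 1 = growth at the plate median or of vehicle wells; lower values mean less growth of the strain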
# Conditions: S. cerevisiae deletion strains, growth OD, locus YJL128C, strain PBS2, stronger effect = lower value
About 2,000 (36%) of roughly 5,500 compounds were called active. Inconclusive results (about 18%) are left out. The list shows a part of the results.
Mark yes only when normalized growth stays strictly below 0.9. Values equal to the cut-off are no.

The examples below pair each entry with its known result.
Q: Criterion: normalized growth strictly below 0.9. Is it met by O=S(=O)(CS(=O)(=O)Oc1ccc(Cl)c(Cl)c1)Oc1ccc(Cl)c(Cl)c1 ?
A: no

Q: What do we get for O=C1/C(=C/c2ccccn2)CCc2ccccc21 ?
A: no

Q: Now the same for CC(C)(C)NC(=S)N/N=C\c1ccccc1O
A: no

Q: Note, next up: COCCCNC(=S)N/N=C\c1cc(Br)ccc1O
A: no

Q: Another: CC(C)(C)C(=O)NC(=S)N/N=C\c1cc(Cl)cc(Cl)c1O
A: no

Q: Same read-out for c1ccc(-c2nnc(-c3ccccn3)nc2-c2ccccc2)cc1 ?
A: yes

Q: // repeat for Cc1nnc2n1N=C(c1ccc(CC(C)C)cc1)C(C)S2 (configuration not stated) and report
A: no

Q: Then what about the molecule COc1ccc(/C=C2/C(=O)Nc3ccccc32)cc1 ?
A: yes

Q: Query Cc1ccc(C)n1-c1ccc(/C=C2/C(=O)Nc3ccccc32)cc1 next
A: no

Q: Please answer likewise for O=C1C(Cl)=C(Oc2cc(Cl)c(Cl)cc2Cl)C(=O)c2ccccc21
A: yes

---
Q: normalized growth strictly < 0.9 for this molecule? O=C(NNc1ccc(F)cc1F)c1sccc1Cl
A: no

Q: Now give it for FC(F)(F)c1cccc(NC(=S)NN=C2CCCCCC2)c1 too.
A: no

Q: Again, but for OC1(C(F)(F)F)CC(c2ccc3ccccc3c2)=NN1 (configuration not stated)
A: yes

Q: Same lookup for O=C1Nc2ccccc2/C1=C\c1ccc(Cl)cc1 , please.
A: yes
